Tested on: L1 larvae of the Australian sheep blowfly (Lucilia cuprina)
Assay: Lucilia cuprina test (LUCICU)
Format: in vivo
Conditions: application rate 100 ppm; after 2 days
For each record, write down the corresponding efficacy (kill in %).
Only the number, expressed in %, is required.

Exam item: // query efficacy (kill in %) value for entry `Cn1nc(C(F)(F)C(F)(F)F)c(C(F)(F)F)c1-n1ccc(-c2ccc(Cl)c(C(=O)NC3(C#N)CC3)c2)n1`
Marked response: 100

Exam item: Now try `Cn1nc(C(F)(F)C(F)(F)F)c(C(F)(F)F)c1-n1cc(-c2ccc(F)c(C(=O)NC3CC3)c2)cn1` .
Marked response: 100

Exam item: Now try `COc1ccc(-c2cnn(-c3c(C(F)(F)F)c(C(F)(F)C(F)(F)F)nn3C)c2)cc1C(=O)NC1CC1` .
Marked response: 100

Exam item: Now try `Cn1nc(C(F)(F)C(F)(F)F)c(C(F)(F)F)c1-n1cc(-c2ccc(Cl)c(C(=O)NCC(=O)NCC(F)(F)F)c2)cn1` .
Marked response: 90

---

Test: logP determination by HPLC on a reversed-phase column (C18), EEC Directive 79/831 Annex V.A8
Format: physicochemical
Conditions: HPLC on reversed-phase column (C18), acetonitrile/water with formic acid, EEC Directive 79/831 Annex V.A8
measurementLabel: logP
Write no unit; give the number alone.

Exam item: // query logP value for entry `Cn1nc(C(F)(F)C(F)(F)F)c(C(F)(F)F)c1-n1cc(-c2ccc(Cl)c(C(=O)NC3CSC3)c2)cn1`
Marked response: 4.09

Exam item: Now try Cn1nc(C(F)(F)F)c(C=NO)c1-n1cc(-c2ccc(Cl)c(C(=O)NC3(C#N)CC3)c2)cn1 (mixture of isomers) .
Marked response: 2.42

Exam item: Now try Cn1nc(C(F)(F)C(F)(F)F)c(C(F)(F)F)c1-n1cc(-c2ccc(Cl)c(C(=O)NC3CC3(Cl)Cl)c2)cn1 (stereo not shown) .
Marked response: 4.34

Exam item: Now try `Cn1nc(C(F)(F)F)c(C(F)(F)F)c1-n1cc(-c2ccc(Cl)c(C(=O)NC3CC3)c2)cn1` .
Marked response: 3.42

---

Assay: logP determination by HPLC on a reversed-phase column (C18), EEC Directive 79/831 Annex V.A8
Assay type: physicochemical
Conditions: HPLC on reversed-phase column (C18), acetonitrile/water with formic acid, EEC Directive 79/831 Annex V.A8
measurementLabel: logP
Write no unit; give the number alone.

Exam item: // query logP value for entry `Cn1nc(C(F)(F)C(F)(F)F)c(C(F)(F)F)c1-n1cc(-c2ccc(Cl)c(C(=O)Nc3ccc(F)cc3)c2)cn1`
Marked response: 4.53

Exam item: Now try `Cn1nc(C(F)(F)C(F)(F)F)c(C(F)(F)F)c1-n1cc(-c2ccc(Cl)c(C(=S)NC3CC3)c2)cn1` .
Marked response: 4.34

Exam item: Now try CC1CC1NC(=O)c1cc(-c2cnn(-c3c(C(F)(F)F)c(C(F)(F)C(F)(F)F)nn3C)c2)ccc1Cl (stereo not shown) .
Marked response: 4.15

Exam item: Now try CC(NC(=O)c1cc(-c2cnn(-c3c(C(F)(F)F)c(C(F)(F)C(F)(F)F)nn3C)c2)ccc1Cl)C1CC1 (stereo not shown) .
Marked response: 4.4

Exam item: Now try CON=Cc1c(C(F)(F)F)nn(C)c1-n1cc(-c2ccc(Cl)c(C(=O)NC3(C#N)CC3)c2)cn1 (mixture of isomers) .
Marked response: 3.09

Exam item: Now try `Cn1nc(C(F)(F)F)c(C(F)(F)F)c1-n1cc(-c2ccc(Cl)c(C(=O)NCCF)c2)cn1` .
Marked response: 3.24

Exam item: Now try `Cn1nc(C(F)(F)F)c(C#N)c1-n1cc(-c2ccc(Cl)c(C(=O)NC3CC3)c2)cn1` .
Marked response: 2.97
